System: HBV quasi-species of patient sample N° 17
Test: High throughput phenotyping assay: patient sample N° 17
Type: cell-based, hepatitis B virus
Conditions: Hepatitis B virus, 96 h; sample N° 17, M24 3TC, INNO LiPA L180M ± M204I; 4 days treatment
Procedure: The DNA from 1 ml of serum was extracted using the QIAamp Ultrasens Virus kit (Qiagen), and was taken up in 60 μl of water. […] This denaturation step was then stopped by adding a neutralizing buffer, 15 μl of 1M Tris at pH 7, and the solution thus obtained was subjected to a dilution before quantification by real time PCR. […] The viral DNA extracted was then quantified by means of real time PCR quantification method. […]
REPORTED_PROPERTY: IC50 (µM)
Give bare numbers, in µM.

Quick one: IC50 of Nc1ncnc2c1ncn2CCOCP(=O)(O)O [Adefovir] ?
14
